Measured ABUTH herbicidal rating by item
System: ABUTH Velvetleaf
Assay: Preemergence herbicidal evaluation, ABUTH
Format: in vivo, Abutilon theophrasti, Medic.
Set-up: scale not given here
Settings: preemergence, rate 0.032 kg/ha

- cpd_smiles: "COc1ccccc1-n1nnc2cc(F)c(-n3c(=O)cc(C(F)(F)F)n(C)c3=O)cc21"
  ABUTH herbicidal rating: 9.0
- cpd_smiles: "CCc1cccc(-n2nnc3cc(F)c(-n4c(=O)cc(C(F)(F)F)n(C)c4=O)cc32)c1"
  ABUTH herbicidal rating: 9.0
- cpd_smiles: "Cc1ccc(-n2nnc3cc(F)c(-n4c(=O)cc(C(F)(F)F)n(C)c4=O)cc32)cc1"
  ABUTH herbicidal rating: 6.5
- cpd_smiles: "COC(=O)COc1ccc(C)c(-n2nnc3cc(F)c(-n4c(=O)cc(C(F)(F)F)n(C)c4=O)cc32)c1"
  ABUTH herbicidal rating: 0.0
- cpd_smiles: "COC(=O)COc1ccc(C)cc1-n1nnc2cc(F)c(-n3c(=O)cc(C(F)(F)F)n(C)c3=O)cc21"
  ABUTH herbicidal rating: 9.0

* * *

Tested on: AMBEL Ragweed, Common
Test: Postemergence herbicidal evaluation, AMBEL
Assay type: in vivo, Ambrosia artemisifolia, L.
Set-up: scale not given here
Settings: 0.008 kg/ha, postemergence spray, rated about two-three weeks after treatment
Let's look at some compounds and their measured Postemergence herbicidal rating AMBEL.

- compound: "C=CCOc1ccc(-n2nnc3cc(F)c(-n4c(=O)cc(C(F)(F)F)n(C)c4=O)cc32)c(C)c1 [Example 43]"
  assayed_system: "AMBEL Ragweed, Common"
  Postemergence herbicidal rating AMBEL: 1.0
- compound: "COC(=O)COc1ccc(C)c(-n2nnc3cc(F)c(-n4c(=O)cc(C(F)(F)F)n(C)c4=O)cc32)c1 [Example 38]"
  assayed_system: "AMBEL Ragweed, Common"
  Postemergence herbicidal rating AMBEL: 2.0
- compound: "Cc1ccc(-n2nnc3cc(F)c(-n4c(=O)cc(C(F)(F)F)n(C)c4=O)cc32)cc1C [Example 23]"
  assayed_system: "AMBEL Ragweed, Common"
  Postemergence herbicidal rating AMBEL: 0.0
- compound: "COC(=O)COc1ccc(-n2nnc3cc(F)c(-n4c(=O)cc(C(F)(F)F)n(C)c4=O)cc32)c(C)c1 [Example 39]"
  assayed_system: "AMBEL Ragweed, Common"
  Postemergence herbicidal rating AMBEL: 0.0
- compound: "Cc1ccc(O)cc1-n1nnc2cc(F)c(-n3c(=O)cc(C(F)(F)F)n(C)c3=O)cc21 [Example 32]"
  assayed_system: "AMBEL Ragweed, Common"
  Postemergence herbicidal rating AMBEL: 0.0
- compound: "COc1ccc(C)cc1-n1nnc2cc(F)c(-n3c(=O)cc(C(F)(F)F)n(C)c3=O)cc21 [Example 18]"
  assayed_system: "AMBEL Ragweed, Common"
  Postemergence herbicidal rating AMBEL: 1.0
- compound: "COC(=O)COc1ccc(C)cc1-n1nnc2cc(F)c(-n3c(=O)cc(C(F)(F)F)n(C)c3=O)cc21 [Example 34]"
  assayed_system: "AMBEL Ragweed, Common"
  Postemergence herbicidal rating AMBEL: 0.0
- compound: "COc1ccc(Cl)cc1-n1nnc2cc(F)c(-n3c(=O)cc(C(F)(F)F)n(C)c3=O)cc21 [Example 30]"
  assayed_system: "AMBEL Ragweed, Common"
  Postemergence herbicidal rating AMBEL: 9.0
- compound: "Cc1cc(O)ccc1-n1nnc2cc(F)c(-n3c(=O)cc(C(F)(F)F)n(C)c3=O)cc21 [Example 33]"
  assayed_system: "AMBEL Ragweed, Common"
  Postemergence herbicidal rating AMBEL: 0.0
- compound: "COC(=O)C(C)Oc1ccc(C)cc1-n1nnc2cc(F)c(-n3c(=O)cc(C(F)(F)F)n(C)c3=O)cc21 (centres unmarked) [Example 41]"
  assayed_system: "AMBEL Ragweed, Common"
  Postemergence herbicidal rating AMBEL: 7.0
- compound: "C#CCOC(=O)COc1ccc(C)cc1-n1nnc2cc(F)c(-n3c(=O)cc(C(F)(F)F)n(C)c3=O)cc21 [Example 40]"
  assayed_system: "AMBEL Ragweed, Common"
  Postemergence herbicidal rating AMBEL: 9.0
- compound: "C=CCOc1ccc(C)cc1-n1nnc2cc(F)c(-n3c(=O)cc(C(F)(F)F)n(C)c3=O)cc21 [Example 42]"
  assayed_system: "AMBEL Ragweed, Common"
  Postemergence herbicidal rating AMBEL: 7.0
- compound: "COc1ccc(C)c(-n2nnc3cc(F)c(-n4c(=O)cc(C(F)(F)F)n(C)c4=O)cc32)c1 [Example 22]"
  assayed_system: "AMBEL Ragweed, Common"
  Postemergence herbicidal rating AMBEL: 0.0
- compound: "Cc1ccc(OCC(=O)O)cc1-n1nnc2cc(F)c(-n3c(=O)cc(C(F)(F)F)n(C)c3=O)cc21 [Example 37]"
  assayed_system: "AMBEL Ragweed, Common"
  Postemergence herbicidal rating AMBEL: 0.0
- compound: "CCc1ccc(-n2nnc3cc(F)c(-n4c(=O)cc(C(F)(F)F)n(C)c4=O)cc32)cc1 [Example 17]"
  assayed_system: "AMBEL Ragweed, Common"
  Postemergence herbicidal rating AMBEL: 5.0
- compound: "COC(=O)COc1ccccc1-n1nnc2cc(F)c(-n3c(=O)cc(C(F)(F)F)n(C)c3=O)cc21 [Example 35]"
  assayed_system: "AMBEL Ragweed, Common"
  Postemergence herbicidal rating AMBEL: 4.0
- compound: "Cc1ccccc1-n1nnc2cc(F)c(-n3c(=O)cc(C(F)(F)F)n(C)c3=O)cc21 [Example 20]"
  assayed_system: "AMBEL Ragweed, Common"
  Postemergence herbicidal rating AMBEL: 0.0
- compound: "COc1ccc(-n2nnc3cc(F)c(-n4c(=O)cc(C(F)(F)F)n(C)c4=O)cc32)cc1 [Example 27]"
  assayed_system: "AMBEL Ragweed, Common"
  Postemergence herbicidal rating AMBEL: 5.0
- compound: "CCc1ccc(-n2nnc3cc(F)c(-n4c(=O)cc(C(F)(F)F)n(C)c4=O)cc32)cc1COC [Example 28]"
  assayed_system: "AMBEL Ragweed, Common"
  Postemergence herbicidal rating AMBEL: 9.0
- compound: "CCc1cccc(-n2nnc3cc(F)c(-n4c(=O)cc(C(F)(F)F)n(C)c4=O)cc32)c1 [Example 29]"
  assayed_system: "AMBEL Ragweed, Common"
  Postemergence herbicidal rating AMBEL: 7.0
